Please provide measured Predicted Hepatic Clearance (Pred. Cl.) for the entries that follow.
assay: Microsomal stability, human liver microsomes (predicted hepatic clearance); details: predicted from in vitro microsomal stability data
Expressed in mL/min/kg, but write only the number.

[in] Report measured Predicted Hepatic Clearance (Pred. Cl.); entry is COc1cc(Cl)ccc1COc1nccc(-c2ccc(Cc3nc4ccc(C(=O)O)cc4n3CC3(CC#N)CC3)cc2F)n1 [Example 93]
[out] 14.5

[in] Report measured Predicted Hepatic Clearance (Pred. Cl.); entry is COCCn1c(Cc2ccc(-c3cccc(OCc4ccc(C(F)(F)F)nc4N)n3)cc2F)nc2ccc(C(=O)O)cc21 [Example 595]
[out] 6.17

[in] Report measured Predicted Hepatic Clearance (Pred. Cl.); entry is Cn1ncnc1Cn1c(Cc2cc(F)c(-c3cccc(OCc4ccc(C#N)cc4F)n3)cc2F)nc2ccc(C(=O)O)cc21 [Example 578]
[out] 4.67

[in] Report measured Predicted Hepatic Clearance (Pred. Cl.); entry is CCn1cnnc1Cn1c(Cc2cc(F)c(-c3cccc(OCc4ccc(C(F)F)cc4F)n3)cc2F)nc2ccc(C(=O)O)cc21 [Example 678]
[out] 4.17

[in] Report measured Predicted Hepatic Clearance (Pred. Cl.); entry is N#Cc1ccc(COc2nccc(-c3ccc(Cc4nc5c(F)cc(C(=O)O)cc5n4CC45CC(CO4)C5)cc3F)n2)c(F)c1 [Example 650]
[out] 11

[in] Report measured Predicted Hepatic Clearance (Pred. Cl.); entry is COCCn1c(Cc2cc(F)c(-c3cccc(OCc4ccc(C)nc4F)n3)cc2F)nc2ccc(C(=O)O)cc21 [Example 822]
[out] 1.83

[in] Report measured Predicted Hepatic Clearance (Pred. Cl.); entry is N#Cc1cc(F)c(COc2nc(-c3ccc(Cc4nc5ccc(C(=O)O)cc5n4C[C@@H]4CCO4)cc3F)ccc2F)cc1F [Example 676]
[out] 2.33

====

Please provide measured Predicted Hepatic Clearance (Pred. Cl.) for the entries that follow.
test: Microsomal stability, human liver microsomes (predicted hepatic clearance); settings: predicted from in vitro microsomal stability data
Expressed in mL/min/kg, but write only the number.

[in] Report measured Predicted Hepatic Clearance (Pred. Cl.); entry is COCCn1c(Cc2cc(F)c(-c3cccc(OCc4ccc(C#N)cc4F)n3)cc2F)nc2c(F)cc(C(=O)O)cc21
[out] 5.05

[in] Report measured Predicted Hepatic Clearance (Pred. Cl.); entry is COCCn1c(Cc2ccc(-c3cccc(OCc4ccc(C#N)cc4F)n3)cc2Cl)nc2ccc(C(=O)O)cc21
[out] 5.33

[in] Report measured Predicted Hepatic Clearance (Pred. Cl.); entry is CC12CCC(Cn3c(Cc4cc(F)c(-c5cccc(OCc6ccc(C#N)cc6F)n5)cc4F)nc4ccc(C(=O)O)cc43)(C1)OC2 (stereo not drawn)
[out] 1.83

[in] Report measured Predicted Hepatic Clearance (Pred. Cl.); entry is N#Cc1ccc(COc2nccc(-c3cc(F)c(Cc4nc5c(F)cc(C(=O)O)cc5n4CC45CC(CO4)C5)cc3F)n2)c(F)c1
[out] 8

[in] Report measured Predicted Hepatic Clearance (Pred. Cl.); entry is N#Cc1ccc(COc2cccc(-c3cc(F)c(Cc4nc5c(F)cc(C(=O)O)cc5n4CCOC4CC4)cc3F)n2)c(F)c1
[out] 4.17

[in] Report measured Predicted Hepatic Clearance (Pred. Cl.); entry is Cc1cnc(Cn2c(Cc3cc(F)c(-c4cccc(OCc5ccc(C#N)cc5F)n4)cc3F)nc3ccc(C(=O)O)cc32)o1
[out] 8.33

[in] Report measured Predicted Hepatic Clearance (Pred. Cl.); entry is COCCn1c(Cc2ccc(-c3nc(OCc4ccc(C#N)cc4F)ncc3F)cc2F)nc2ccc(C(=O)O)cc21
[out] 6.5

[in] Report measured Predicted Hepatic Clearance (Pred. Cl.); entry is N#Cc1ccc(COc2nc(-c3cc(F)c(Cc4nc5ccc(C(=O)O)cc5n4C[C@@H]4CCO4)cc3F)ncc2F)c(F)c1
[out] 4.33

[in] Report measured Predicted Hepatic Clearance (Pred. Cl.); entry is N#CCC1(Cn2c(Cc3ccc(-c4ccnc(OCc5ccc(C#N)cc5F)n4)c(F)c3)nc3c(F)cc(C(=O)O)cc32)CC1
[out] 4

[in] Report measured Predicted Hepatic Clearance (Pred. Cl.); entry is COCCn1c(Cc2ccc(-c3cccc(OCc4ccc(C#N)cc4F)n3)c(C)c2)nc2ccc(C(=O)NS(=O)(=O)C3CC3)cc21
[out] 9

[in] Report measured Predicted Hepatic Clearance (Pred. Cl.); entry is COCCn1c(Cc2c(F)cc(-c3cnccc3OCc3ccc(C#N)cc3F)cc2F)nc2ccc(C(=O)O)cc21
[out] 7.83

[in] Report measured Predicted Hepatic Clearance (Pred. Cl.); entry is CNC(=O)C(Cn1c(Cc2ccc(-c3cccc(OCc4ccc(C#N)cc4F)n3)cc2F)nc2ccc(C(=O)O)cc21)OC (single isomer, unassigned) [Example 330]
[out] 3.17

[in] Report measured Predicted Hepatic Clearance (Pred. Cl.); entry is COCCn1c(Cc2ccc(-c3cccc(OCc4ccc(C#N)cc4F)n3)cc2C#CC2CCOCC2)nc2ccc(C(=O)O)cc21
[out] 18.7

[in] Report measured Predicted Hepatic Clearance (Pred. Cl.); entry is COCC1(Cn2c(Cc3cc(F)c(-c4cccc(OCc5ccc(C#N)cc5F)n4)cc3F)nc3ccc(C(=O)O)cc32)CCCO1 (stereo not drawn)
[out] 8

[in] Report measured Predicted Hepatic Clearance (Pred. Cl.); entry is COCCn1c(Cc2cnc(-c3cccc(OCc4ccc(C#N)cc4F)n3)c(F)c2)nc2ccc(C(=O)O)cc21
[out] 5.5

[in] Report measured Predicted Hepatic Clearance (Pred. Cl.); entry is COCCn1c(Cc2ccc(-c3cccc(OCc4ccc(C#N)cc4F)n3)cc2C2CC2)nc2ccc(C(=O)O)cc21
[out] 9.83

[in] Report measured Predicted Hepatic Clearance (Pred. Cl.); entry is COC[C@@H](CF)n1c(Cc2cc(F)c(-c3cccc(OCc4ccc(C#N)cc4F)n3)cc2F)nc2ccc(C(=O)O)cc21
[out] 5.5

[in] Report measured Predicted Hepatic Clearance (Pred. Cl.); entry is N#Cc1ccc(COc2cccc(-c3ccc(Cc4nc5ccc(C(=O)O)cc5n4Cc4cnco4)c(F)c3)n2)c(F)c1
[out] 12

[in] Report measured Predicted Hepatic Clearance (Pred. Cl.); entry is COC[C@@H](Cn1c(Cc2cc(F)c(-c3cccc(OCc4ccc(C#N)cc4F)n3)cc2F)nc2ccc(C(=O)O)cc21)OC
[out] 10.7

[in] Report measured Predicted Hepatic Clearance (Pred. Cl.); entry is CC1(C)CC(Cn2c(Cc3ccc(-c4cccc(OCc5ccc(C#N)cc5F)n4)cc3F)nc3ccc(C(=O)O)cc32)O1 (single isomer, unassigned) [Example 905]
[out] 4.33

[in] Report measured Predicted Hepatic Clearance (Pred. Cl.); entry is O=C(O)c1cc(F)c2nc(Cc3cc(F)c(-c4cccc(OCc5ccc(C(F)(F)F)cc5F)n4)cc3F)n(Cc3ncco3)c2c1
[out] 1.83

[in] Report measured Predicted Hepatic Clearance (Pred. Cl.); entry is N#Cc1ccc(COc2cccc(-c3ccc(Cc4nc5ccc(C(=O)O)cc5n4C4COC4)c(F)c3)n2)c(F)c1
[out] 4.83

[in] Report measured Predicted Hepatic Clearance (Pred. Cl.); entry is COCCn1c(Cc2ccc(-c3cccc(OCc4ccccc4-c4ccccc4)n3)cc2F)nc2ccc(C(=O)O)cc21
[out] 9.67

[in] Report measured Predicted Hepatic Clearance (Pred. Cl.); entry is COCCn1c(Cn2cc(-c3cccc(OCc4ccc(C#N)cc4F)n3)cn2)nc2ccc(C(=O)O)cc21
[out] 8.17

[in] Report measured Predicted Hepatic Clearance (Pred. Cl.); entry is N#Cc1ccc(COc2nc(-c3ccc(Cc4nc5ccc(C(=O)O)cc5n4C[C@@H]4CCO4)cc3)ccc2F)c(F)c1
[out] 1.83

Ref: patent US11702404B2
